Target: stromelysin-1 (full-length native enzyme) (Homo sapiens)
Sequence (P08254 100-477): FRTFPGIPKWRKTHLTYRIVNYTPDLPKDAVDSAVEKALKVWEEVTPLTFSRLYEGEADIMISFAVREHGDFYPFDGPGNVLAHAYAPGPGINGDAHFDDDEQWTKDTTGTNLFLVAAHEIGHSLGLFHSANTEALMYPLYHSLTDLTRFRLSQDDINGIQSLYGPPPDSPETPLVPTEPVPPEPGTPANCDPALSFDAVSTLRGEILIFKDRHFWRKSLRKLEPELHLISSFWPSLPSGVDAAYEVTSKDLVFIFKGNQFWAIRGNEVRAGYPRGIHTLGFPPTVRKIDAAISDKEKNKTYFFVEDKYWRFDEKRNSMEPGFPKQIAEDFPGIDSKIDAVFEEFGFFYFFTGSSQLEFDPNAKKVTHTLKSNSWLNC

| Molecular String | Target Desc | Units Of Measure | IC50 |
| --- | --- | --- | --- |
| O=C(O)CCC(=NO)c1ccc2oc3ccccc3c2c1 | stromelysin-1 (full-length native enzyme) (Homo sapiens) | µM | 7.64 |

* * *

Target: gelatinase B (recombinant full-length enzyme) (Homo sapiens, UniProt P14780)
Construct: gelatinase B (recombinant full-length enzyme)
Sequence (P14780 94-707): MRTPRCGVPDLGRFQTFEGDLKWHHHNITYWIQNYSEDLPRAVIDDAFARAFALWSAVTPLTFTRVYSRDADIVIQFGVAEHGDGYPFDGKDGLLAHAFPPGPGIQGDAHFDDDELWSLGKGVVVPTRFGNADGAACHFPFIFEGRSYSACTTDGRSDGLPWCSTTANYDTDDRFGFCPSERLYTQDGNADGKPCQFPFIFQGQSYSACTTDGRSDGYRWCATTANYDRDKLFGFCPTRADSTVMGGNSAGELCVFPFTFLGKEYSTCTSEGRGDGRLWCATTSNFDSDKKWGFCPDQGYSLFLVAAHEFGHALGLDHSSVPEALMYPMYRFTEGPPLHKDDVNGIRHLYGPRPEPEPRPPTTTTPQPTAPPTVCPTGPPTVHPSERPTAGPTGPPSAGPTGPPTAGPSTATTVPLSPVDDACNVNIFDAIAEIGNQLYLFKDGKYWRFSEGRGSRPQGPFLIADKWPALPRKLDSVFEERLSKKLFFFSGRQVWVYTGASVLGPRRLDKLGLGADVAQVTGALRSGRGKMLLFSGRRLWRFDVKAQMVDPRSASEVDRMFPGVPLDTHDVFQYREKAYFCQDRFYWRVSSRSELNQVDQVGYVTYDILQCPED
Assay: Thiopeptolide substrate IC50 assay, gelatinase B

| Compound | IC50 |
| --- | --- |
| O=C(O)CCC(=NO)c1ccc2oc3ccccc3c2c1 [Example 2] | > 100 µM |

* * *

Target: gelatinase A (recombinant full-length enzyme) (Homo sapiens, UniProt P08253)
Construct: gelatinase A (recombinant full-length enzyme)
Sequence (P08253 110-660): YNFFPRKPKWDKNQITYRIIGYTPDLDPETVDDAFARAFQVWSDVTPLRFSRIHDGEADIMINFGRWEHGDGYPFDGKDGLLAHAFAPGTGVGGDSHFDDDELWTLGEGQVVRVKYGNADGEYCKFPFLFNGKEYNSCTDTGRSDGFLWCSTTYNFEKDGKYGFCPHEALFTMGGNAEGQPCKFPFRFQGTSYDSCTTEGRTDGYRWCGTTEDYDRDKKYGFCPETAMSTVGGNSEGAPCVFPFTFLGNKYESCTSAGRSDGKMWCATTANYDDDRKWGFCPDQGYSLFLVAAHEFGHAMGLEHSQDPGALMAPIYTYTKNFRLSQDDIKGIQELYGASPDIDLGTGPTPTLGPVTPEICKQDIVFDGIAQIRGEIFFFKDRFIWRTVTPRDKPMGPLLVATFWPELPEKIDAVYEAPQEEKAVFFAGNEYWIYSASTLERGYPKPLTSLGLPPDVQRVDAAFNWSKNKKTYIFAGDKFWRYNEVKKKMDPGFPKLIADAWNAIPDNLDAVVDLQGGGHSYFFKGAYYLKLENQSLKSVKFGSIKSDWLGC
Assay: Thiopeptolide substrate IC50 assay, full-length gelatinase A
Endpoint Label: IC50 (µM)

| Molecular String | Units Of Measure | Observed |
| --- | --- | --- |
| O=C(O)CCC(=NO)c1ccc2oc3ccccc3c2c1 | µM | 1.31 |

* * *

Target: GCD (recombinant gelatinase A catalytic domain) (Homo sapiens, UniProt P08253, DEL220-393)
Construct: The gelatinase A catalytic domain, GCD, was similarly constructed with the additional removal of the fibronectin-like insert which interrupts the catalytic domain; made in house
Assay: Thiopeptolide substrate IC50 assay, gelatinase A catalytic domain
Type: biochemical

| Compound | IC50 / µM |
| --- | --- |
| O=C(O)CCC(=NO)c1ccc2oc3ccccc3c2c1 [Example 2] | 0.04 |

# credit: patent EP0828726B1
